Value source: patent US20240246967A1

Quick note: these are pIC50 numbers for system: human MER (Homo sapiens)
pIC50: −log10 of the molar value.

# pIC50 (molecule: COCCOc1ccc(-c2n[nH]c3ncc(-c4ccc5c(c4)CCC(C)(N4CCC[C@H]4C)CC5)cc23)cc1 (some centres unmarked) ) is 6.00 to 7.00

# pIC50 (molecule: CC(C)(O)c1ccc(-c2n[nH]c3ncc(-c4ccc5c(c4)CCN(C4CCCC4)CC5)cc23)cc1Cl ) is < 6.00

# pIC50 (molecule: C[C@@H]1CCCN1C1CCc2ccc(-c3cnc4[nH]nc(-c5ccc(C6(O)CCOC6)c(Cl)c5)c4c3)cc2CC1 (some centres unmarked) ) is 6.00 to 7.00

# pIC50 (molecule: Cc1cc(-c2n[nH]c3ncc(-c4ccc5c(c4)CCN(C4CC4)CC5)cc23)ccc1C(=O)N1CCNCC1 ) is < 6.00

# pIC50 (molecule: CC(C)(O)c1ccc(-c2n[nH]c3ncc(-c4ccc5c(c4)CCC(N4CCCC4)CC5)cc23)cn1 (centres unmarked) ) is 6.00 to 7.00

# pIC50 (molecule: CS(=O)(=O)c1ccc(-c2n[nH]c3ncc(-c4ccc5c(c4)CCN(C4CCCC4)CC5)cc23)cc1F ) is 6.00 to 7.00

# pIC50 (molecule: COC1CCN(C(=O)c2ccc(-c3n[nH]c4ncc(-c5ccc6c(c5)CCC(C)(N5CCC[C@H]5C)CC6)cc34)cc2Cl)CC1 (some centres unmarked) ) is 6.00 to 7.00

# pIC50 (molecule: C[C@@H]1CCCN1C1CCc2ccc(-c3cnc4[nH]nc(-c5ccc(C6(O)CCC6)c(Cl)c5)c4c3)cc2CC1 (some centres unmarked) ) is 6.00 to 7.00

# pIC50 (molecule: CC1(N2CCC[C@@H]2CO)CCc2ccc(-c3cnc4[nH]nc(-c5ccc(S(=O)(=O)C6CC6)cc5)c4c3)cc2CC1 (some centres unmarked) ) is 6.00 to 7.00

# pIC50 (molecule: C[C@@H]1CCCN1C1(C)CCc2ccc(-c3cnc4[nH]nc(-c5ccc(S(=O)(=O)C6CCCC6)cc5)c4c3)cc2CC1 (some centres unmarked) ) is < 6.00

# pIC50 (molecule: C[C@@H]1CCCN1C1CCc2ccc(-c3cnc4[nH]nc(-c5ccc(C6(O)COC6)c(Cl)c5)c4c3)cc2CC1 (some centres unmarked) ) is < 6.00

# pIC50 (molecule: CC(C)S(=O)(=O)c1ccc(-c2n[nH]c3ncc(-c4ccc5c(c4)CC[C@@H](N4CCCC4)CC5)cc23)cc1 ) is 6.00 to 7.00

# pIC50 (molecule: NS(=O)(=O)c1ccc(-c2n[nH]c3ncc(-c4ccc5c(c4)CCN(C4CCCC4)CC5)cc23)cc1Cl ) is 6.00 to 7.00

# pIC50 (molecule: O=S(=O)(c1ccc(-c2n[nH]c3ncc(-c4ccc5c(c4)CC[C@@H](N4CCCC4)CC5)cc23)cc1)C1CC1 ) is 6.00 to 7.00

# pIC50 (molecule: NC(=O)c1ccc(-c2n[nH]c3ncc(-c4ccc5c(c4)CC[C@@H](N4CCCC4)CC5)cc23)cc1Cl ) is > 7.00

# pIC50 (molecule: CS(=O)(=O)N1CCC(c2n[nH]c3ncc(-c4ccc5c(c4)CCC(N4CCCC4)CC5)cc23)CC1 (centres unmarked) ) is 6.00 to 7.00

# pIC50 (molecule: C[C@@H]1CCCN1C1(C)CCc2ccc(-c3cnc4[nH]nc(-c5ccc(S(=O)(=O)N6CCC6)cc5)c4c3)cc2CC1 (some centres unmarked) ) is 6.00 to 7.00

# pIC50 (molecule: c1cc2c(cc1-c1cnc3[nH]nc(-c4ccc(N5C[C@H]6C[C@@H]5CO6)cc4)c3c1)CC[C@@H](N1C3COCC1C3)CC2 ) is < 6.00

# pIC50 (molecule: C[C@@H]1CCCN1C1(C)CCc2ccc(-c3cnc4[nH]cc(-c5ccc(S(=O)(=O)C6CC6)cc5)c4c3)cc2CC1 (some centres unmarked) ) is < 6.00

# pIC50 (molecule: CCC1(N2CCC[C@H]2C)CCc2ccc(-c3cnc4[nH]nc(-c5ccc(S(=O)(=O)C6CC6)cc5)c4c3)cc2CC1 (some centres unmarked) ) is < 6.00

---

For each record, write down the corresponding pIC50.
Biological target: human MER (Homo sapiens, UniProt Q12866)
Sequence (Q12866 21-999): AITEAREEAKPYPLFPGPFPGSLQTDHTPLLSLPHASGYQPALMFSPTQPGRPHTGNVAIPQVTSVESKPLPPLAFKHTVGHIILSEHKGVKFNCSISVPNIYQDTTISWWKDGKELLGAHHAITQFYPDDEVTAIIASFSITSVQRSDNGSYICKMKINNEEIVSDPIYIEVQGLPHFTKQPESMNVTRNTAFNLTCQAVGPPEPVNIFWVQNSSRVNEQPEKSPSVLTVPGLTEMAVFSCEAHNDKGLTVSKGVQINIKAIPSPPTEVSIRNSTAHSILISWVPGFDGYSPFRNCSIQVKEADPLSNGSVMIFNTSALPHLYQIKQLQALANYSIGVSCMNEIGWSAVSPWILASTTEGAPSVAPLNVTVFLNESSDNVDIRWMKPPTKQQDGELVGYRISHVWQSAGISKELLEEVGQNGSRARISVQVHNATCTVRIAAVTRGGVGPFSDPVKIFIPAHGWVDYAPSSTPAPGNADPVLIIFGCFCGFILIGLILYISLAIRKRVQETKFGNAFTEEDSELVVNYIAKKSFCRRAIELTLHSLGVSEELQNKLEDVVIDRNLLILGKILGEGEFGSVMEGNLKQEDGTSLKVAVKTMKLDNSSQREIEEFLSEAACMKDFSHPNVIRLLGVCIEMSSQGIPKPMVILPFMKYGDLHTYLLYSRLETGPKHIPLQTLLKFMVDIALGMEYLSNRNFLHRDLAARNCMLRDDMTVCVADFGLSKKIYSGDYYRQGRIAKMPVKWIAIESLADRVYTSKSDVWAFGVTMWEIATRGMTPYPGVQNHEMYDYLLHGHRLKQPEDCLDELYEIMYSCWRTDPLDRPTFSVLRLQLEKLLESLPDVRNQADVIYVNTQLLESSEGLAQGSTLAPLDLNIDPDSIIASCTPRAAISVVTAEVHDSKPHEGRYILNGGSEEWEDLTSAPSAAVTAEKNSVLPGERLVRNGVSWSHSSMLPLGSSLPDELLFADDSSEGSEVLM
pIC50: −log10 of the molar value.

Let me check: Cc1cc(-c2n[nH]c3ncc(-c4ccc5c(c4)CC[C@@H](N4CCCC4)CC5)cc23)cc(F)c1C(N)=O [Example 83] , system human MER (Homo sapiens, UniProt Q12866), measured pIC50 is > 7.00

Let me check: C[C@@H]1CCCN1C1CCc2ccc(-c3cnc4[nH]nc(-c5ccc(C(C)(C)O)cn5)c4c3)cc2CC1 (stereo partly shown) [Example 97] , system human MER (Homo sapiens, UniProt Q12866), measured pIC50 is < 6.00

Let me check: COCCNC(=O)c1ccc(-c2n[nH]c3ncc(-c4ccc5c(c4)CCC(C)(N4CCC[C@H]4C)CC5)cc23)cc1 (stereo partly shown) [Example 72] , system human MER (Homo sapiens, UniProt Q12866), measured pIC50 is < 6.00

Let me check: O=C1CCCN1c1ccc(-c2n[nH]c3ncc(-c4ccc5c(c4)CC[C@@H](N4C6COCC4C6)CC5)cc23)cc1 [Example 122] , system human MER (Homo sapiens, UniProt Q12866), measured pIC50 is < 6.00

---

Molecular target: Axl (Homo sapiens)
Sequence (P30530 26-894): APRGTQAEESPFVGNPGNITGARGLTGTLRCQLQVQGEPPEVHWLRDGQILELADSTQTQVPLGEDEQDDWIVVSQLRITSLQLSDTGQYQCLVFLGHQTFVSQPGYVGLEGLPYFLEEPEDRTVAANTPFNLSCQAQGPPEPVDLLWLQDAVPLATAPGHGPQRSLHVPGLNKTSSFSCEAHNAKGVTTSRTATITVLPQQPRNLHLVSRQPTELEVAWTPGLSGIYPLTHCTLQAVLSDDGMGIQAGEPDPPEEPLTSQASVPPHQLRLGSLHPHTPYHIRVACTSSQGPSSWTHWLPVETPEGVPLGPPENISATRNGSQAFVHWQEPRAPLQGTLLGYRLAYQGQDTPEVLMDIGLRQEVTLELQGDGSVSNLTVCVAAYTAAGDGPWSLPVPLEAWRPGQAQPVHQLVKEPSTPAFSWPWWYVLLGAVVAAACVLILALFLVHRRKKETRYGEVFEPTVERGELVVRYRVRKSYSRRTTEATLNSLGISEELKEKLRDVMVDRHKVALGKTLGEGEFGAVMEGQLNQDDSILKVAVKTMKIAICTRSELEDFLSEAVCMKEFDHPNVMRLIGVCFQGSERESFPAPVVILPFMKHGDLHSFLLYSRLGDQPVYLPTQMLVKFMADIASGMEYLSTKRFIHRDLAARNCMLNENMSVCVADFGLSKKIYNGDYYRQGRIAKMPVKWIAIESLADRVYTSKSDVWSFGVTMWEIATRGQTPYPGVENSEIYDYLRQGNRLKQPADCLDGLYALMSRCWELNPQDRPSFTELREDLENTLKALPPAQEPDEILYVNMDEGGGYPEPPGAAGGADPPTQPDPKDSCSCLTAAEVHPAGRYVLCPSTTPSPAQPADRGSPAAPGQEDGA
Assay: Axl NanoBRET intracellular kinase assay (intracellular binding, Cell Binding)
Design: host or cells: HEK-293
Settings: HEK-293 cells transfected with Axl-NanoLuc fusion vector; 0.35 μM K-5 NanoBRET tracer
pIC50: −log10 of the molar value.
measurementName: pIC50

# pIC50 (compound: CCS(=N)(=O)c1ccc(-c2n[nH]c3ncc(-c4ccc5c(c4)CCC(C)(N4CCC[C@H]4C)CC5)cc23)cc1 (stereo partly drawn) ) is 6.00 to 7.00

# pIC50 (compound: C[C@@H]1CCCN1C1CCc2ccc(-c3cnc4[nH]nc(-c5ccc(S(N)(=O)=O)c(Cl)c5)c4c3)cc2CC1 (stereo partly drawn) ) is > 7.00

# pIC50 (compound: CC(C)(C#N)c1ccc(-c2n[nH]c3ncc(-c4ccc5c(c4)CCN(C4CCCC4)CC5)cc23)cc1 ) is < 6.00

# pIC50 (compound: COC1CCN(S(=O)(=O)c2ccc(-c3n[nH]c4ncc(-c5ccc6c(c5)CCC(C)(N5CCC[C@H]5C)CC6)cc34)cc2)CC1 (stereo partly drawn) ) is 6.00 to 7.00

# pIC50 (compound: Cc1cc(C(N)=O)ccc1-c1n[nH]c2ncc(-c3ccc4c(c3)CC[C@@H](N3CCCC3)CC4)cc12 ) is 6.00 to 7.00

# pIC50 (compound: NS(=O)(=O)c1ccc(-c2n[nH]c3ncc(-c4ccc5c(c4)CCN(C4CCCC4)CC5)cc23)cc1Cl ) is 6.00 to 7.00
